assay_comment: Rat pharmacokinetics, iv and po dosing, whole blood and plasma
Assay type: in vivo
reported_conditions: whole blood, po 10 mg/kg, mean, read-out: Cmax
reported_endpoint: Cmax (ng/mL)
Answers are plain numbers, in ng/mL.

Ask: For CC(C)CC1NC(=O)[C@H](CC(C)C)N(C)C(=O)CN(C)C(=O)C([C@@H](C)O)NC(=O)C([C@H](O)[C@H](C)CCN2CCOCC2)N(C)C(=O)C(C(C)C)N(C)C(=O)C(CC(C)C)NC(=O)C(CC(C)C)N(C)C(=O)C(C(C)C)OC(=O)C(C)NC(=O)C(CC(C)C)N(C)C1=O (stereo in doubt) , what is its reported Cmax?
Result: 678
